- Tested on: anti-desmoglein-3 scFv antibody binding to human DSG3
- Assay explanation: inhibitors of anti-DSG3 scFv binding to DSG3, pilot screen, biochemical, validation compound set, bead-based, flow cytometry (AID 588368);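 also: signal is the median channel fluorescence of bead-bound GFP antibody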
- Run conditions: Protein G beads, DSG3-Fc, scFv-GFP binding, at 10 µM, stronger effect = lower value
Please provide measured binding (% of control) for the entries that follow.
The reply should contain only the number, in %.

What value of binding (% of control) has been recorded for this entry: O=C(CCCN1CC=C(n2c(=O)[nH]c3ccccc32)CC1)c1ccc(F)cc1
104

State the recorded binding (% of control) for this entry: CCCCC(=O)O[C@]1(C(=O)CO)CC[C@H]2[C@@H]3CCC4=CC(=O)CC[C@]4(C)[C@H]3[C@@H](O)C[C@@]21C
101

Find the recorded binding (% of control) belonging to CCCOc1ccc(-c2cc(C(=O)NCC3CCCO3)c3ccccc3n2)cc1 (configuration not stated) and report it.
97.3

Please give the measured binding (% of control) for this compound: COc1cc(OC)c(C2C(C#N)=C(N)OC3=C2C(=O)CC(C)(C)C3)cc1OC (configuration not stated)
102

Reported binding (% of control) for C/C(NC(=O)c1cccs1)=C1\C(=O)C[C@@H]2[C@H]1C2(C)C : what is it?
105

Looking for the measured binding (% of control) of COc1ccccc1-c1ccc(/C=C2/C=C(CC(C)C)OC2=O)o1 , can you help?
99.5

Quick check: binding (% of control) of COc1ccc(CN(CCN(C)C)c2ccccn2)cc1 ?
99.3

binding (% of control) lookup needed for COC(=O)c1cc(=O)c2ccc(OC)cc2o1 , thanks.
101

Suppose we examine the compound COC(=O)c1cc(C(=O)NCCC(C)C)cc([N+](=O)[O-])c1 ; what binding (% of control) value has been reported?
94.5

Sample CC(C)CCOCC(=O)Nc1cccc(C(=O)O)c1 — what was its binding (% of control)?
103

May I ask what binding (% of control) has been recorded for COc1cc2c(cc1OC)-c1cc(OCc3ccccc3Cl)nc(=O)n1CC2 ?
99.8

What does the data say about its binding (% of control)? Entry: Cn1cc(CN2CCCC(CO)(Cc3cccc(Cl)c3)C2)cn1 (configuration not stated)
102

Would you kindly share the measured binding (% of control) for CC1(C)CC(=O)C(C2(O)C(=O)Nc3ccccc32)CO1 (configuration not stated) ?
105

Fill in the blank: the reported binding (% of control) of CC[C@]1(O)C[C@@H]2CN(CCc3c([nH]c4ccccc34)[C@@](C(=O)OC)(c3cc4c(cc3OC)N(C)[C@H]3[C@@](O)(C(=O)OC)[C@H](OC(C)=O)[C@]5(CC)C=CCN6CC[C@]43[C@@H]65)C2)C1 is ____.
111

Any idea what its binding (% of control) is? The compound is CCOC(=O)c1cccc(C(=O)OCC)n1
103

Could you share which binding (% of control) value was measured for Cc1ccccc1C(OCCN(C)C)c1ccccc1 (configuration not stated) ?
98.7

Entry COc1cc2cc(C(=O)O)n(C)c2c(OC)c1OC : reported binding (% of control) = ?
106

For COc1c2occc2c(OC)c2c(=O)cc(C)oc12 , what is its reported binding (% of control)?
102

Reported binding (% of control) for O=C1NCC2=C1C(c1ccccc1)Nc1ccccc1N2 (configuration not stated) : what is it?
102

binding (% of control) for COc1ccc2c(c1)C(=O)CC(c1ccccc1F)O2 (configuration not stated) ?
94.1

What value of measured binding (% of control) is listed for CC(=O)Oc1ccc(C(=O)O)cc1OC(C)=O ?
105

Item under review: CCOc1ccc(CC2c3cc(OCC)c(OCC)cc3CCN2C(=O)CN2CCN(C)CC2)cc1OCC (configuration not stated) . Reported binding (% of control)?
108

* * *

- Assay explanation: modulators of CIT2-GFP expression in yeast, confirmation, S. cerevisiae, GFP fusion, cherry picks, mother/daughter gates (AID 2274)
- Run conditions: S. cerevisiae CIT2-GFP strain, flow cytometry, 3 h; measured here: mother cell gate; at 10 µM; stronger effect = higher value
Result type: GFP response, % of DMSO (%)
Write the number in % without appending the unit.

Which GFP response, % of DMSO is reported for this molecule? Cc1ccc(S(=O)(=O)N2C3C=CC(C3)C2C(=O)O)cc1 (stereo unspecified)
98.2

I would be grateful if you could share the reported GFP response, % of DMSO for Cc1ccc(-c2csc(NC(=O)c3cccs3)n2)cc1 .
94.4

Using the record for COc1ccc(/C=C/C(=O)C2C(=O)C=C(C)OC2=O)cc1O (stereo unspecified) , report its GFP response, % of DMSO.
96.8

GFP response, % of DMSO lookup needed for COc1ccccc1N1C(=O)CC(Sc2ncccc2C(=O)O)C1=O (stereo unspecified) , thanks.
99.8

Data request, read-out GFP response, % of DMSO, for O=[N+]([O-])c1ccc(SCCc2ccncc2)cc1
101

Any idea what its GFP response, % of DMSO is? The molecule is Cc1[nH][nH]c(=O)c1C(c1ccc(-c2ccc(Cl)c(Cl)c2)o1)c1c(C)[nH][nH]c1=O
102

* * *

- Assay explanation: yeast V-ATPase proton transport modulators, S. cerevisiae, pHLuorin, HTS validation (AID 504600);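 also: plate controls were DMSO for no effect and reference compound for full effect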
- Run conditions: S. cerevisiae pHLuorin cytosolic pH, at 10 µM, stronger effect = higher value
Result type: response (%)
# number only, unit % dropped from output

Quick one: response of CC(=O)c1c(N)nc2n(c1=O)CCCCC2 ?
0.91

For the molecule NS(=O)(=O)c1cc2c(cc1C(F)(F)F)NCNS2(=O)=O , what response is on record?
1.35

Quick one: response of COc1ccc(-c2c(NC(=O)c3ccco3)n(C)c3ccccc3c2=O)cc1 ?
-3.79

Which response is listed for CCN(CC)CCN1C(=O)C(=O)/C(=C(/O)c2c(C)[nH]c(C(=O)OC)c2C)C1c1cccnc1 (stereo unspecified) ?
-2.49

Given CC12CCC(C(=O)N3CCCCC3)([C@H](Br)C1=O)C2(C)C (stereo partly specified) , state its recorded response.
0.52

Looking for the measured response of O=C1CC(c2ccc(F)cc2)Cc2nc(NCC3CCCO3)ncc21 (stereo unspecified) , can you help?
-2.69

* * *

- Assay explanation: RPL19A-GFP modulators, yeast TOR pathway, confirmation, cell-based, S. cerevisiae, flow cytometry, cherry picks, mother/daughter gates (AID 2270)
- Run conditions: S. cerevisiae RPL19A-GFP strain, 3 h, measured here: mother cell gate, at 10 µM, stronger effect = lower value, 100 = same GFP as DMSO wells
Result type: GFP response vs DMSO (%)
Number only, in %; omit the unit.

Which GFP response vs DMSO value is on record for CCC(=O)c1ccc(N2CCN(C(=O)c3ccc(Br)cc3)CC2)c(F)c1 ?
94.4

Query: GFP response vs DMSO; subject: COc1ccc(COC(=O)c2n[nH]c3ccccc23)cc1F
98.2

I'd like to know its GFP response vs DMSO. The compound in question is CC(C)(C)c1ccc(C(=O)N/N=C/c2cccc(Cl)c2)cc1
95.4

Requested read-out: GFP response vs DMSO. Entry: CCCCCCNC(=O)c1c(O)c2cccc3c2n(c1=O)CCC3
100

Give its GFP response vs DMSO value. Item: CN1/C(=C\C(=O)c2cccc(S(=O)(=O)N3CCCCC3)c2)C(C)(C)c2ccccc21
97.2

Fill in: GFP response vs DMSO of COc1ccc(C(=O)/C=C2/C(=O)Nc3ccccc32)cc1 is ___
82.7

// query GFP response vs DMSO value for entry Cc1cc(NCCCN2CCOCC2)n2nc(C)c(-c3ccc(F)cc3)c2n1
95.6

Which measured GFP response vs DMSO value corresponds to COc1ccc(N2CCN(C(=O)c3ccccc3)CC2)c([N+](=O)[O-])c1 ?
103

Look up GFP response vs DMSO: CCc1noc(C)c1C(=O)Nc1nc2ccc(OC)cc2s1
92.5

Returns the measured GFP response vs DMSO for the input compound. Input: CC(C)c1ccc(C(=O)N/N=C/c2cccc(Cl)c2Cl)cc1
92.6

Using the record for Cc1ccc(-c2csc(NC(=O)c3ccno3)n2)cc1 , report its GFP response vs DMSO.
96.5

* * *

- Assay explanation: RPL19A-GFP modulators, yeast TOR pathway, confirmation, cell-based, S. cerevisiae, flow cytometry, cherry picks, mother/daughter gates (AID 2270)
- Run conditions: S. cerevisiae RPL19A-GFP strain, 3 h, measured here: daughter cell gate, at 10 µM, stronger effect = lower value, 100 = same GFP as DMSO wells
Result type: GFP response vs DMSO (%)
Numeric only. Scale: %

Fill in: GFP response vs DMSO of O=C(O)c1ccn2c(C(=O)c3ccccc3)c(-c3ccccc3)cc2c1 is ___
88.6

Form field: reported GFP response vs DMSO of O=C1C=C(c2ccccc2)C(=O)N1Nc1ccccc1
88.3

Please give the measured GFP response vs DMSO for this molecule: O=C(OCn1ncc(Br)c(Br)c1=O)c1ccc(F)cc1
99.8

// query GFP response vs DMSO value for entry Cc1cc(NCCN2CCOCC2)n2ncc(-c3ccccc3)c2n1
99.8

Param item = COc1ccc(-c2[nH]ncc2N=Nc2ccccc2)cc1 ; retrieve measured GFP response vs DMSO.
94.3

Fill in the blank: the reported GFP response vs DMSO of COc1cccc(C(=O)/C=C/c2ccc(SC)cc2)c1 is ____.
98.1

Query: GFP response vs DMSO; subject: Cc1ccc(CC2CC(=O)N(Cc3ccco3)C2=O)cc1 (configuration not stated)
101

Which value of GFP response vs DMSO has been reported for O=C(Oc1c(Cl)cc(Cl)c2cccnc12)c1ccco1 in the records?
89.2

Look at this molecule and give its reported GFP response vs DMSO. C/C(=N\NC(=O)c1ccc(Cl)c(Cl)c1)c1ccccn1
96.4

Sample O=c1[nH]n(Cc2ccccc2)c2ccccc12 — what was its GFP response vs DMSO?
97.8

Requested field: GFP response vs DMSO. Item: Cc1ccc(CS(=O)(=O)c2ncc(Cl)c(C(=O)Nc3nnc(C)s3)n2)cc1
99.8

Suppose we examine the molecule O=C(O)c1ccc(SCc2cnc(Cl)s2)cc1 ; what GFP response vs DMSO value has been reported?
96.7
